Please go through the items and note down their α1.
assayed.system: 14-3-3/ChREBP complex (Homo sapiens, UniProt P31946+Q9NP71)
Sequence (P31946 1-246): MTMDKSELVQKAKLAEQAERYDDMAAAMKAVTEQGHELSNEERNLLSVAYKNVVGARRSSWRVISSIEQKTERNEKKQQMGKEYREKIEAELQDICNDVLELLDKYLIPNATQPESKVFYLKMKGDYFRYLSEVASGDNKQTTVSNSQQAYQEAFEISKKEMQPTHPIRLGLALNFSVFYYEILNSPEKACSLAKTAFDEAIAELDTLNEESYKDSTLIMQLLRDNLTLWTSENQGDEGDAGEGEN
Sequence (Q9NP71 117-142 partner limits assumed): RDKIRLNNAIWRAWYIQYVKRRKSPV
assay.info: 2D FA titrations fitted to thermodynamic cooperativity model
assay.setup: 2D FA model fit, dimeric 14-3-3 model; replicate 1
Give the figure only, with no unit attached.

Specify the recorded α1 for NCCCC[C@@H](C(=O)NCCC(=O)N[C@@H](CCCCNC(=S)Nc1ccc2c(c1)C(=O)OC21c2ccc(O)cc2Oc2cc(O)ccc21)C(N)=O)N1Cc2cn(nn2)-c2ccc(cc2)C[C@H](NC(=O)[C@@H](N)COP(=O)(O)O)C(=O)N[C@@H](CO)CC(=O)NCCC(=O)N[C@@H](Cc2ccc([N+](=O)[O-])cc2)C1=O , system: 14-3-3/ChREBP complex (Homo sapiens, UniProt P31946+Q9NP71).
82.8

Specify the recorded α1 for NCCCC[C@@H](C(=O)NCCC(=O)N[C@@H](CCCCNC(=S)Nc1ccc2c(c1)C(=O)OC21c2ccc(O)cc2Oc2cc(O)ccc21)C(N)=O)N1CCc2cn(nn2)-c2ccc(cc2)C[C@H](NC(=O)[C@@H](N)COP(=O)(O)O)C(=O)N[C@@H](CO)CC(=O)NCCC(=O)N[C@@H](Cc2ccc([N+](=O)[O-])cc2)C1=O , system: 14-3-3/ChREBP complex (Homo sapiens, UniProt P31946+Q9NP71).
18.8

Specify the recorded α1 for NCCCC[C@@H](C(N)=O)N1CCCc2cn(nn2)-c2ccc(cc2)C[C@H](NC(=O)[C@@H](N)COP(=O)(O)O)C(=O)N[C@@H](CO)CC(=O)NCCC(=O)N[C@@H](Cc2ccc([N+](=O)[O-])cc2)C1=O , system: 14-3-3/ChREBP complex (Homo sapiens, UniProt P31946+Q9NP71).
11.7

Specify the recorded α1 for NCCCC[C@@H](C(N)=O)N1CCCCc2cn(nn2)-c2ccc(cc2)C[C@H](NC(=O)[C@@H](N)COP(=O)(O)O)C(=O)N[C@@H](CO)CC(=O)NCCC(=O)N[C@@H](Cc2ccc([N+](=O)[O-])cc2)C1=O , system: 14-3-3/ChREBP complex (Homo sapiens, UniProt P31946+Q9NP71).
11.8
